Data provenance: the supplement of paper PMC12042874

assayMethodText: amyloid nucleation score (Sup35N fusion, yeast selection) (log enrichment); library NNK3; higher = more nucleation; inactive = no reads after selection;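 further: zero at mode of non-aggregating sequences after 7 days selection at 30°C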

{"monomerSequence": "DSIVICQFIFDIKFLDKRKC", "amyloid nucleation score": 1.77}
{"monomerSequence": "GYNIMLYMLKYS", "amyloid nucleation score": "inactive"}
{"monomerSequence": "VRLSRAVILLAVIHLRWGLT", "amyloid nucleation score": "inactive"}
{"monomerSequence": "SFNFCLFASLSALCMTRVEF", "amyloid nucleation score": "inactive"}
{"monomerSequence": "ILMPKTVVTVYISNMCDYSQ", "amyloid nucleation score": 2.58}
{"monomerSequence": "RMYACSWGKSDLSCLMSFGK", "amyloid nucleation score": "inactive"}
{"monomerSequence": "NLLNSFIFSRLRRVEGGMFG", "amyloid nucleation score": "inactive"}
{"monomerSequence": "YLNISGWSYFNCTRSWLLNR", "amyloid nucleation score": "inactive"}
{"monomerSequence": "GSPFYIFRVINLYT", "amyloid nucleation score": 2.93}
{"monomerSequence": "NPIYDSQLPATSCMQAFNAF", "amyloid nucleation score": "inactive"}
{"monomerSequence": "GFHLGFHGWNCKLAK", "amyloid nucleation score": -0.349}
{"monomerSequence": "TSMMSWQSSHCHVYWRTDWV", "amyloid nucleation score": 0.457}
{"monomerSequence": "TVSGQLIT", "amyloid nucleation score": "inactive"}
{"monomerSequence": "YWRELDSIQCNLFRGQPFNL", "amyloid nucleation score": "inactive"}
{"monomerSequence": "YISLVSWHNGWYSKLICGVV", "amyloid nucleation score": "inactive"}
{"monomerSequence": "HLAMWFNHLSLDCL", "amyloid nucleation score": "inactive"}
{"monomerSequence": "GSMVVEFMYYHPTPTRGAWA", "amyloid nucleation score": 0.8}

----------
assayMethodText: amyloid nucleation score (Sup35N fusion, yeast selection) (log enrichment); library NNK3; higher = more nucleation; inactive = no reads after selection
valueKind: amyloid nucleation score

{"monomerSequence": "YFSVLSESVSHSDVFRS", "recordedValue": "inactive"}
{"monomerSequence": "GVGFQGYVTRGKNRLRDRAQ", "recordedValue": "inactive"}
{"monomerSequence": "RTSEPKTAHIMNEAIRRC", "recordedValue": "inactive"}
{"monomerSequence": "NSRARSSYRIMNWWLLFDMT", "recordedValue": "inactive"}
{"monomerSequence": "LRYNRDVTS", "recordedValue": "inactive"}
{"monomerSequence": "LGFFCVIFVS", "recordedValue": "inactive"}
{"monomerSequence": "LNIQFFINLALAEGFLYNRK", "recordedValue": 2.97}
{"monomerSequence": "YKLICMSSRWTFLSSRQGEF", "recordedValue": "inactive"}
{"monomerSequence": "DAFIGYHYLGGLISGIWSSR", "recordedValue": 0.693}
{"monomerSequence": "VIYRSYLRIDSFIGRGGLII", "recordedValue": 0.567}
{"monomerSequence": "DQSNSSEGILCYNLCVLMTE", "recordedValue": 2.43}
{"monomerSequence": "VSRVTRLNKFISVVHDSCEV", "recordedValue": "inactive"}
{"monomerSequence": "TCYFVYTRFFWGDRESKSTF", "recordedValue": "inactive"}
{"monomerSequence": "TRSFCVSK", "recordedValue": "inactive"}
{"monomerSequence": "NVQQALIHVSAHGCRFFLTC", "recordedValue": 2.71}
{"monomerSequence": "HTWSCCYFLS", "recordedValue": 2.54}
{"monomerSequence": "PKNFLSVETF", "recordedValue": "inactive"}
